Target: TetR (class B, Tn10)
Experiment: TetR repression strength (sort-seq, GFP reporter) (relative to tetO2 = 1); higher = stronger repression
Conditions: E. coli
Whole data set: some 18,000 sequences, median “TetR repression strength (sort-seq, GFP reporter)” near 0.23, cut for the highest 2% near 0.68. The sample holds the highest values, similar sequences and a random draw of the others, so the mix is not that of the screen.
Binary classification by TetR repression strength, with 0.6 as an inclusive lower bound for y; all other cases are n.

{"columns": ["biopolymer-sequence", "qualitative-label"],
 "data": [
  ["TCCCCGGTAGTTTGCGAGA", "y"],
  ["TCCCTATAAGTCGTCGAGA", "n"],
  ["TCCCTATCAGTGATCGAGA", "y"],
  ["TCCCCGTCAGTGTGCGAGA", "n"],
  ["TCCCGTCGAGTAAGTGAGA", "n"],
  ["TCCCTATCAGTTCGTGAGA", "n"],
  ["TCCCTTTCAGTAATAGAGA", "y"],
  ["TCCCCATCAGTTCCTGAGA", "y"],
  ["TCCCTTATAGTGTAGGAGA", "n"],
  ["TCCCACGGAGTGGTGGAGA", "n"],
  ["TCCCTTTCAGTGATGGAGA", "n"],
  ["TCCCCATCAGTTCATGAGA", "n"],
  ["TCCCTATTAGTTTGCGAGA", "n"],
  ["TCCCTTTCAGTTATAGAGA", "y"],
  ["TCCCACGTAGTCAATGAGA", "n"]
]}

Hello, the source for this data is a collection of fitness landscapes (doi:10.1038/s41467-024-54723-y), in case you need it.
